Target: 11β-HSD2 Cys^128Ser (Homo sapiens, UniProt P80365, C128S)
Settings: read-out: TBT IC50 ± SD, Cys^128Ser; mutant Cys^128Ser, lysate
OBSERVABLE: IC50 (µM)
Hi! Could you send only the number? It should be in µM, unit omitted.

Identify the measured IC50 of CCC[CH2][Sn]([CH2]CCC)[CH2]CCC [TBT, tributyltin] for 11β-HSD2 Cys^128Ser (Homo sapiens, UniProt P80365, C128S).
1.87

---

Measured pIC50 accompanies every entry in the list below.
Target: UniProt P80365
Sequence (P80365 1-405): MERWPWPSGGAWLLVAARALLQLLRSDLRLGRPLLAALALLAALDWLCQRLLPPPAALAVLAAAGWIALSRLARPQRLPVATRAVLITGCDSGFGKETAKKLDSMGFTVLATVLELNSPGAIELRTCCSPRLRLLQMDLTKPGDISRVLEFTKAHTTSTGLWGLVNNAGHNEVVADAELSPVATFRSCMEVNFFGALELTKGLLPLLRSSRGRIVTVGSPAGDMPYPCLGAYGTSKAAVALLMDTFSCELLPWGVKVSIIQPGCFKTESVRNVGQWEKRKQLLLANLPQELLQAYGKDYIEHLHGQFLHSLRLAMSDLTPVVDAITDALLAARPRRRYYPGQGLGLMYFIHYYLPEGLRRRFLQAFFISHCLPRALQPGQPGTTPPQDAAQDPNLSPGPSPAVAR
Experiment: 11β-HSD2 activity in intact stably transfected HEK-293 cells
Assay type: cell-based
Design: expressed in transfected cells; host or cells: HEK-293, stably transfected
Conditions: HEK-293 stably transfected, 40 nM cortisol, 2 hr
Units for pIC50: none; it is -log10 of a concentration expressed in mol/L.

COMPOUND | TESTED SYSTEM | pIC50
c1cc[c]([Sn]([c]2ccccc2)[c]2ccccc2)cc1 [TPT, triphenyltin] | UniProt P80365 | 6.00
CCC[CH2][Sn]([CH2]CCC)[CH2]CCC [TBT, tributyltin] | UniProt P80365 | 5.82
c1cc[c]([Sn][c]2ccccc2)cc1 [DPT, diphenyltin] | UniProt P80365 | 5.54

Read the next record carefully.
Look up pIC50 for this compound: CCC[CH2][Sn][CH2]CCC [DBT, dibutyltin]
5.30
